Target: G protein-activated inward rectifier potassium channel 2 (Homo sapiens) + G protein-activated inward rectifier potassium channel 1 (Homo sapiens) (UniProt P48051+P48549)
Sequence (P48051 whole entry, looked up): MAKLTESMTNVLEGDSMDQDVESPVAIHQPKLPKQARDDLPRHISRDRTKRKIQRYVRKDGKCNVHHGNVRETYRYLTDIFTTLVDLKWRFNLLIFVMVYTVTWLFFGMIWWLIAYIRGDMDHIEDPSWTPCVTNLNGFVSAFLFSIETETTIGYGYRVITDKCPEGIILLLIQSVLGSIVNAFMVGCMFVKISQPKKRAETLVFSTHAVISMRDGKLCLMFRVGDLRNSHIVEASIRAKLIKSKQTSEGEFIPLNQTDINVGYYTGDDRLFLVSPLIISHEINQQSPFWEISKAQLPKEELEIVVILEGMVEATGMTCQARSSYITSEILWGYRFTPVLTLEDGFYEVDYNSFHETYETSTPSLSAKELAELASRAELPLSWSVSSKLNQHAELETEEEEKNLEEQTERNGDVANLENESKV
Sequence (P48549 whole entry, looked up): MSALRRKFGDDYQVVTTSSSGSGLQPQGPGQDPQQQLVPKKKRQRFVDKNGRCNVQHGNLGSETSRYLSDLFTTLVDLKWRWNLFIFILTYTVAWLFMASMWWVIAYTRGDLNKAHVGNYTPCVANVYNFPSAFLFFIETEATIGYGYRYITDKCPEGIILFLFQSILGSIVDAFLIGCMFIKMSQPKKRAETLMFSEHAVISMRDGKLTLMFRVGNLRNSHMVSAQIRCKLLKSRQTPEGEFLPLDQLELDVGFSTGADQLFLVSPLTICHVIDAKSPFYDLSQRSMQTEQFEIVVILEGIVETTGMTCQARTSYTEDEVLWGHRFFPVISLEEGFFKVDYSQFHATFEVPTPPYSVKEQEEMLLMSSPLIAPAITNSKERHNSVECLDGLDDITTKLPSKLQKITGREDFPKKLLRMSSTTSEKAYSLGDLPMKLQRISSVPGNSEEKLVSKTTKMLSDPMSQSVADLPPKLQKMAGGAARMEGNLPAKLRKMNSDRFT
Assay: GIRK1/2 thallium flux modulators, retest, confirmation, cell-based, HEK293 rmGlu8/hGIRK1/2, FluoZin-2 (AID 623911)
Conditions: HEK293 rmGlu8/hGIRK1/2, thallium flux FluoZin-2; actives lie on both sides; glutamate co-added at its EC20 level
Among all 2,100 compounds or so, about 770 (37%) were called active.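 The calls were made as follows: active = by-eye trace score of 1 for enhancers or -1 for inhibitors, so actives lie on both sides (some results past the limit were not filed as active); inactive = score 0, or 3 fluorescent, or 4 baseline rise.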 The list shows a part of the results.
Permitted responses: active, inactive

Examples from the recorded data:
{"Compound": "O=C(O)c1cnc(-c2ccccc2)nc1Sc1ccccc1Cl", "Qualitative label": "inactive"}
{"Compound": "Cc1cc([N+](=O)[O-])ccc1-c1ccc(C2Nc3ccccc3C(=O)N2O)o1 (centres undefined)", "Qualitative label": "inactive"}
{"Compound": "CCOC(=O)/C(=C\\C=C1/Sc2cc(OCC)c(OCC)cc2N1CC)C(C)=O", "Qualitative label": "inactive"}
{"Compound": "Cc1ccc(/C=N/Nc2nc(Cl)c(Cl)cc2Cl)s1", "Qualitative label": "inactive"}

Just curious, what result did "CC(C)Cn1cnc2sc3c(c2c1=N)CCCC3" get here?
active

Just curious, what result did "COc1ccc(/C=C2\SC(=O)NC2=S)cc1OC" get here?
active

Just curious, what result did O=C1CC(N2CCN(c3nc4ccccc4s3)CC2)C(=O)N1c1ccc(F)cc1 (centres undefined) get here?
inactive

Just curious, what result did O=C(Nc1nnc(-c2ccccc2F)s1)C1CCCO1 (centres undefined) get here?
inactive

Just curious, what result did N#CC1=C(N)Oc2n[nH]c(-c3cccs3)c2C1c1ccco1 (centres undefined) get here?
inactive

Just curious, what result did "COc1ccc(N2CCCn3c2nc2c3c(=O)n(Cc3ccccc3F)c(=O)n2C)c(OC)c1" get here?
active

Just curious, what result did "O=C(Nc1nc(=O)c2ccccc2s1)c1ccccc1" get here?
active

Just curious, what result did "CC(C)(C)c1csc(NC(=O)c2ccc3nccnc3c2)n1" get here?
inactive

Just curious, what result did "Cc1cs/c(=N\N=C\c2cccc([N+](=O)[O-])c2)n1Cc1ccco1" get here?
inactive

Just curious, what result did "CC1=NN(/C(=N\c2nnc(C)s2)Nc2ccccc2)[C@H](c2cccc3ccccc23)S1" get here?
inactive

Just curious, what result did "COc1cc(/C=C2\SC(=S)NC2=O)ccc1OS(=O)(=O)c1ccccc1" get here?
active

----------
The following compounds are listed with their measured manual score values.
Molecular target: G protein-activated inward rectifier potassium channel 2 (Homo sapiens) + G protein-activated inward rectifier potassium channel 1 (Homo sapiens) (UniProt P48051+P48549)
Assay: GIRK1/2 thallium flux modulators, retest, confirmation, cell-based, HEK293 rmGlu8/hGIRK1/2, FluoZin-2 (AID 623911)
Conditions: HEK293 rmGlu8/hGIRK1/2, thallium flux FluoZin-2; actives lie on both sides; glutamate co-added at its EC20 level
The campaign covered roughly 2,100 compounds. About 770 (37%) were called active. The list shows a part of the results.
Enter a number only.

Example entries and their recorded answers appear below.
{"Cpd smiles": "Clc1cccc(-c2ccc(/C=N/n3cnnc3)o2)c1Cl", "manual score": 0}
{"Cpd smiles": "O=C(Cc1ccccc1)Nc1nc(=O)c2ccccc2s1", "manual score": 0}
{"Cpd smiles": "CCN(CC)C(=S)SCC(=O)Nc1nc(=O)c2ccccc2s1", "manual score": 0}
{"Cpd smiles": "Cc1ccc(-c2nnc(SCC(=O)Nc3ccc4c(c3)OCCO4)n2N)cc1", "manual score": 0}
{"Cpd smiles": "CN(C(=O)c1cccnc1)c1nnc(-c2cnccn2)s1", "manual score": 0}

Now for the compound whose manual score we want.
Form field: reported manual score of "Cc1ccc2nc(-c3ccc(O)cc3)c(Nc3ccc4c(c3)OCCO4)n2c1"
-1
